Origin of the recorded values: paper PMC12256323

Study target: r-LvMFBP (XP_027209752.1; methyl farnesoate-binding protein, MFBP)
Construct: recombinant, E. coli BL21-T1R, HisTALON (His-tag) purified; precursor 215 aa with 16 aa signal peptide, mature 199 aa
Procedure summary: isothermal titration calorimetry (also surface plasmon resonance)
Set-up: species or system Penaeus vannamei
Details: ITC: 20 uM protein, 200 uM ligand, 20 mM Tris-HCl pH 7.5, 30 C; SPR: immobilized protein, PBST pH 7.4
Quantity measured: Kd (nM)
Enter your answer as a number in nM; do not include the unit.

Identify measured Kd associated with COC(=O)/C=C(\C)CC/C=C(\C)CCC=C(C)C [MF, methyl farnesoate] 666
